These measurements were taken from PubChem BioAssay (NCI).

# Test system: 786-0 renal
# Assay procedure: NCI tumour cell line growth inhibition, 48 h
Recorded metric: TGI

Field: example entries. Status: answers known.
>  <Smiles string>
O=C1CCCCCCCCCCC(=O)N2CCOCCOCCN1Cc1cccc(n1)C2

>  <Assayed system>
786-0 renal

>  <TGI>
> 100 µM

$$$$
>  <Smiles string>
Nc1nc(/C=C\c2ccc([N+](=O)[O-])cc2)nc(N2CCN(c3ccccc3)CC2)n1

>  <Assayed system>
786-0 renal

>  <TGI>
> 100 µM

$$$$

Consider the record given below.
// map O=c1cc(-c2ccccc2)oc2cc(Oc3nnnn3-c3ccccc3)ccc12 to recorded TGI (system: 786-0 renal)
> 100 µM
